Recorded IC50, one value per entry.
target: alpha7 nAChR (Rattus norvegicus, UniProt Q05941); assay: [3H]-MLA displacement from rat hippocampal membranes; assay type: binding; settings: pIC50 [3H]-MLA displacement, rat hippocampal membranes, 2nM [3H]-MLA
Sequence (Q05941 23-502): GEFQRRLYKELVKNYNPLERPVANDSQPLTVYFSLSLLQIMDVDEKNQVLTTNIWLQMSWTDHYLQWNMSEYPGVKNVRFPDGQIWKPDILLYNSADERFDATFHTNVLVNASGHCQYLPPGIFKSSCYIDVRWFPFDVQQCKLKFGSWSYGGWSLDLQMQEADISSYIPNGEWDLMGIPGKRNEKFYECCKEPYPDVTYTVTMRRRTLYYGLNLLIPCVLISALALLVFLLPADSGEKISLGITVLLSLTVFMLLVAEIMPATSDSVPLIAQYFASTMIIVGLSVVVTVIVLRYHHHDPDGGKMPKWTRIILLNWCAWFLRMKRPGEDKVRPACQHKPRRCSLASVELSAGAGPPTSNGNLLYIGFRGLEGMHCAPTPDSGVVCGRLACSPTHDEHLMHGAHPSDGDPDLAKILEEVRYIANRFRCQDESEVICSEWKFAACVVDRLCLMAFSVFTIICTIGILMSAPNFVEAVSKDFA
Returns: string containing the number followed by the unit.

Fill in: IC50 of O=c1c(O)c(-c2ccc(O)c(O)c2)oc2cc(O)cc(O)c12 [Quercetin] is ___
11.5 µM

Then this compound: O=c1c(O[C@@H]2O[C@H](CO)[C@@H](O)[C@H](O)[C@H]2O)c(-c2ccc(O)c(O)c2)oc2cc(O)cc(O)c12 [Isoquercitrin]
21.5 µM

// same read-out, input: COc1cc(O)c2c(=O)c(O)c(-c3ccc(O)c(O)c3)oc2c1 [Rhamnetin]
1.11 µM

Consider now this further compound.
Need IC50, item COc1cc(-c2oc3cc(O)cc(O)c3c(=O)c2O)ccc1O [Isorhamnetin]
46.6 µM

Hey, just so you know, these numbers are from paper PMC4171190.
